target: Cav3.2 channel (Homo sapiens); construct: expressed in transfected cells; host or cells: HEK-293, tetracycline inducible expression system (Invitrogen); assay: Whole-cell patch clamp of T-type Cav3.2 channel expressed in HEK293 cells; type: cell-based; conditions: Table 2; read-out: Cav3.2 IC50
metric-name: pIC50
Units for pIC50: none; it is -log10 of a concentration expressed in mol/L.

Reference set, count: 3
{"molecule": "CC(C)(C)NC(=O)CN1CCC2(CC1)C[C@H]2NC(=O)C12CC3CC(CC(C3)C1)C2 (single isomer, unassigned)", "pIC50": 6.85}
{"molecule": "CC(C)(C)NC(=O)CN1CCC2(CC1)CC2C(=O)Nc1cc(F)cc(C(F)(F)F)c1 (stereo not shown)", "pIC50": 6.74}
{"molecule": "CC(C)(C)CCN1CCC2(CC1)C[C@H]2NC(=O)c1cc(C(F)(F)F)ccc1Cl (single isomer, unassigned)", "pIC50": 6.89}

Next:
Fill in the blank: the reported pIC50 of CC(C)(C)NC(=O)CN1CCC2(CC1)C[C@H]2NC(=O)c1cc(F)cc(C(F)(F)F)c1 (single isomer, unassigned) is ____.
6.74

====

assay: Metabolic stability in human liver microsomes; type: in vitro ADME
metric-name: microsomal CLint (µL/min/mg)
Could you give me the number in µL/min/mg? Just the number is fine.

// lookup microsomal CLint for CC(C)(C)NC(=O)CN1CCC2(CC1)CC2NC(=O)c1cc(F)cc(Cl)c1 (single isomer, unassigned)
1.9

====

Catalogue of compounds with associated half-life
test: Metabolic stability in human liver microsomes; format: in vitro ADME; settings: read-out: Human Liver Microsomes t1/2
Answer with a number only, understood to be in h.

{"compound": "CC(C)(C)NC(=O)CN1CCC(CNC(=O)c2cc(F)cc(Cl)c2)CC1 [Z944, reference compound]", "quantitative-result": 2.1}

Any idea what half-life was measured for CC(C)(C)CCN1C[C@@H]2[C@@H](CNC(=O)c3cc(Cl)cc(Cl)c3)[C@@H]2C1 [ML218, reference compound] ?
10.5

====

biological target: Cav3.2 channel (Homo sapiens, UniProt O95180); construct: expressed in transfected cells; host or cells: HEK-293, tetracycline inducible expression system (Invitrogen); experiment: Whole-cell patch clamp of T-type Cav3.2 channel expressed in HEK293 cells; format: cell-based; details: Table 1; tested at at least 4 concentrations; read-out: IC50
Sequence (O95180 whole entry): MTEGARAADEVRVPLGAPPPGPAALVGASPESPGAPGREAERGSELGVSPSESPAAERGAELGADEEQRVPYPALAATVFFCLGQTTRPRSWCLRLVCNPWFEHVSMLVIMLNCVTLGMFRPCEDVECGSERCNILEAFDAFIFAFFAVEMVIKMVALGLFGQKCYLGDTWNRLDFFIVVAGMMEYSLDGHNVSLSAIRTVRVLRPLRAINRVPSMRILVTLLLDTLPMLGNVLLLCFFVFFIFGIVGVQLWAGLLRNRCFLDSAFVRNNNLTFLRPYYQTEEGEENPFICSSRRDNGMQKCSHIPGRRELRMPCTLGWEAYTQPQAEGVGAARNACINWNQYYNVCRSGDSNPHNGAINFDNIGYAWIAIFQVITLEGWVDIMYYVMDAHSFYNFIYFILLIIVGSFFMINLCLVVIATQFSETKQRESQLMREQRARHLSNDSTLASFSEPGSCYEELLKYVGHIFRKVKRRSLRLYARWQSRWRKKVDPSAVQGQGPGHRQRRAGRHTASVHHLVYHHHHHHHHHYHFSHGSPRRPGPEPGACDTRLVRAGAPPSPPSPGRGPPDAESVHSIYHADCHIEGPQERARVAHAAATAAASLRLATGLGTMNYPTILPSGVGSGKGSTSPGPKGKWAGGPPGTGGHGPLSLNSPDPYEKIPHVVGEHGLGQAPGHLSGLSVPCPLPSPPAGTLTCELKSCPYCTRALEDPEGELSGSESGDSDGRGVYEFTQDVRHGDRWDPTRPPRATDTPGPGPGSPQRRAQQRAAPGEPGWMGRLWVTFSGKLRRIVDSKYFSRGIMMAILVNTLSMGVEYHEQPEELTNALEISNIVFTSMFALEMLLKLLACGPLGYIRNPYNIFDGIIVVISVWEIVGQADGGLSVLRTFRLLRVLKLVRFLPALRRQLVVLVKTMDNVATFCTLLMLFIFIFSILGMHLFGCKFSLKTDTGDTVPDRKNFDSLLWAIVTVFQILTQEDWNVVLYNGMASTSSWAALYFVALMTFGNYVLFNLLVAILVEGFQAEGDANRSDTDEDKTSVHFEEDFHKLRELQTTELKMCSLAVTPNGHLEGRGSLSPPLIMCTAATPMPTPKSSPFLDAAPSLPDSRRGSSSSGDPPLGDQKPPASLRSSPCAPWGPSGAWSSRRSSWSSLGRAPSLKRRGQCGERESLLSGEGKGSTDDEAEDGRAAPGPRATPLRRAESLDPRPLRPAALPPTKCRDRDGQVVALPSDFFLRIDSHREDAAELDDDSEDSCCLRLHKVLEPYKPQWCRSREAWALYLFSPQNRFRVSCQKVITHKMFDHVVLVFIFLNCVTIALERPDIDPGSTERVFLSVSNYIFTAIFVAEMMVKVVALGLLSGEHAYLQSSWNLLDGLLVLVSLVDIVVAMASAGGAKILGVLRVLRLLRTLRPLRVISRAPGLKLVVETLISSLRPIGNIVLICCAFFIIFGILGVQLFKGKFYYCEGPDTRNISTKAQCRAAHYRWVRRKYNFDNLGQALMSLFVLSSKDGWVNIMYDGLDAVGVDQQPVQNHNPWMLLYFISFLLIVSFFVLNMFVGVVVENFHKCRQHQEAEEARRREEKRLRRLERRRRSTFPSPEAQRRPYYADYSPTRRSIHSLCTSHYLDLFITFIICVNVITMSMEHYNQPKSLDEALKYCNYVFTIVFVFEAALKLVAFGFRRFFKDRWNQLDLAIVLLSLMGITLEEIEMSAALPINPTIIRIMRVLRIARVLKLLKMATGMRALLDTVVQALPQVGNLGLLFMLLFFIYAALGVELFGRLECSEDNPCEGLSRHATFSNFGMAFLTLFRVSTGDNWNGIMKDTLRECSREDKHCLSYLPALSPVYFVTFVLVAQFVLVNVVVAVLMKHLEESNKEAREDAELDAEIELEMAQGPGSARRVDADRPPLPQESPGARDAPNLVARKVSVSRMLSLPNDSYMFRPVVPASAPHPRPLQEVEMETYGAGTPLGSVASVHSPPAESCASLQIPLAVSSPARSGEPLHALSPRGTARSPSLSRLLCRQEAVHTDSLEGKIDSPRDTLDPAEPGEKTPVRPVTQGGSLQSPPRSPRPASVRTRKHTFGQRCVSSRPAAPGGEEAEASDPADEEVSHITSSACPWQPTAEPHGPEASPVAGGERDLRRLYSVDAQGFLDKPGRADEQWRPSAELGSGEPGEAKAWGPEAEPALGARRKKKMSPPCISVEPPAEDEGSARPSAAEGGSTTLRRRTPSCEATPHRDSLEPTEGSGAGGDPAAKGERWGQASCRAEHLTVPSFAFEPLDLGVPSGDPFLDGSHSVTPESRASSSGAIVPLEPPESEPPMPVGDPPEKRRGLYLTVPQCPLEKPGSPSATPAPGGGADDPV
metric-name: pIC50
pIC50 here is simply -log10 of the concentration when that concentration is written in mol/L.

// known answers, use as guide
{"compound": "O=C(NC1CC12CCN(CC1CCOCC1)CC2)c1cc(Cl)cc(Cl)c1 (stereo not drawn) [Example 46]", "metric-name": "pIC50", "quantitative-result": 6.82}
{"compound": "CC(C)(C)CCN1CCC2(CC1)CC2CNC(=O)c1cc(Cl)cc(Cl)c1 (stereo not drawn) [Example 88]", "metric-name": "pIC50", "quantitative-result": 7.05}
{"compound": "CC(C)(C)NC(=O)CN1CCC2(CC1)CC2C(=O)Nc1cc(F)cc(C(F)(F)F)c1 (stereo not drawn) [Example 141]", "metric-name": "pIC50", "quantitative-result": 6.74}

Tell me the measured pIC50 of O=C(NC1CC12CCN(CCCC1CCOCC1)CC2)c1cc(Cl)cc(Cl)c1 (stereo not drawn) [Example 48] , please.
6.59

I am curious: what pIC50 value has been reported for O=C(NC1CC12CCN(Cc1ccccc1)CC2)c1cc(Cl)cc(Cl)c1 (stereo not drawn) [Example 15] ?
7.10

Record request: pIC50 value, item CC(C)(C)CCN1CCC2(CC1)CC2NC(=O)c1cc(C(F)(F)F)ccc1Cl (stereo not drawn) [Example 142]
7.05

Give the measured pIC50 of O=C(NC1CC12CCN(CCc1ccc(Cl)cc1)CC2)c1cc(Cl)cc(Cl)c1 (stereo not drawn) [Example 41] .
6.80

Tell me the measured pIC50 of CC(C)(C)NC(=O)CN1CCC2(CC1)CC2NC(=O)c1cc(Cl)cc(Cl)c1 (stereo not drawn) [Example 14] , please.
7.52

Requested read-out: pIC50. Entry: CC(C)(C)NC(=O)CN1CCC2(CC[C@H]2NC(=O)c2cc(Cl)cc(Cl)c2)CC1 [Example 113]
6.19

Bench note: what pIC50 did CC(C)(C)CCN1CCC2(CC1)CC2C(=O)Nc1cc(Cl)cc(Cl)c1 (stereo not drawn) [Example 91] show?
7.22

Fill blank: measured pIC50 of the compound O=C(NC1CC12CCN(CCC1CCOCC1)CC2)c1cc(Cl)cc(Cl)c1 (stereo not drawn) [Example 47] is ____.
6.80

Param item = CC(C)(C)NC(=O)CN1CCC2(CC1)CC2NC(=O)C12CC3CC(CC(C3)C1)C2 (stereo not drawn) [Example 143] ; retrieve measured pIC50.
6.54

Name the reported pIC50 value associated with the compound CC(C)(C)CCN1CCC2(CC1)CC2N(CC1CC1)C(=O)c1cc(Cl)cc(Cl)c1 (stereo not drawn) [Example 55]
7.15

Look at this compound and give its reported pIC50. CC(C)(C)CCN1CCC2(CC1)CC2NC(=O)c1ccc(Cl)s1 (stereo not drawn) [Example 27]
6.26
